tested on: Fibroblast; experiment: Multiplex assay against human fibroblast; assay type: toxicity, cell-based; details: 12 h, 1 µM, compound concentration 1 uM, replicate 1
Measured Metric: Population Mitochondria Different-Phenotype (%)
Give bare numbers, in %.

Some solved entries appear below for comparison.
> print(dat)
                                   compound  value.unit  measured.value
1  CCN1CCN(Cc2ccc(Nc3ncc(F)c(-c4cc(F)c5nc(C)n(C(C)C)c5c4)n3)nc2)CC1.CS(=O)(=O)O           %              21
2  C=CCn1c(=O)c2cnc(Nc3ccc(N4CCN(C)CC4)cc3)nc2n1-c1cccc(C(C)(C)O)n1 [ADAVOSERTIB]           %               4
3  O=C(Nc1ccc(-n2nc(-c3cccnc3)cc2C(F)(F)F)cn1)c1ccc(-c2ccccc2)c(F)c1 [BI 2049]           %               8

// each compound listed below needs its Population Mitochondria Different-Phenotype (%)
1. O=C1NC(=O)C(c2cnc3ccccn23)=C1c1cn2c3c(cc(F)cc13)CN(C(=O)N1CCCCC1)CC2 [LY-2090314]
2. O=C(Nc1cccnn1)N1CCC(=Cc2cccc(Oc3ccc(C(F)(F)F)cn3)c2)CC1
3. O=C(Nc1ccc(-c2ccnc(Nc3ccc(N4CCOCC4)cc3)n2)cc1)[C@@H]1CCCN1
4. CCn1c(=O)c(-c2ccc(-c3cncs3)cc2Cl)cc2cnc(Nc3ccc(N4CCN(C)CC4)cc3)nc21
5. COc1ccc(-c2ccc3c(N4CCOCC4)nc(N4C[C@@H](C)O[C@@H](C)C4)nc3n2)cc1CO [Ku-0063794]

Response line:
[22, 10, 11, 0, 1]

====

tested on: Fibroblast; assay: Multiplex assay against human fibroblast; format: toxicity, cell-based; conditions: 48 h, 1 µM, compound concentration 1 uM, replicate 2
Measured Metric: Population Healthy Nuclei (%)

Molecule	Population Healthy Nuclei (%)
CCN1CCN(Cc2ccc(Nc3ncc(F)c(-c4cc(F)c5nc(C)n(C(C)C)c5c4)n3)nc2)CC1.CS(=O)(=O)O	43%
CCc1cccc(CC)c1NC(=O)c1nn(C)c2c1CCc1cnc(Nc3ccc(C(=O)NC4CCN(C)CC4)cc3OC(F)(F)F)nc1-2	55%
COc1cc(N2CCN(C)CC2)ccc1Nc1ncc2c(n1)N(C)c1ccccc1C(=O)N2C	72%
Cc1ccc(C(=O)Nc2cccc(C(F)(F)F)c2)cc1Nc1nc(-c2cccnc2)nc2c1cnn2C	32%

Hi team, please reply with Population Healthy Nuclei (%) for each item in this list.
1. CN1CCC(=C2c3ccccc3CC(=O)c3sccc32)CC1.O=C(O)/C=C/C(=O)O [KETOTIFEN FUMARATE]
2. Cl.O=c1c2cccn2c2ccccc2n1CCCN1CCC(c2ccc(Cl)cc2)CC1
3. Cl.Oc1ccc2c3c1O[C@H]1c4[nH]c5c(c4C[C@@]4(O)[C@@H](C2)N(CC2CC2)CC[C@]314)C[C@@]1(O)[C@H]2Cc3ccc(O)c4c3[C@@]1(CCN2CC1CC1)[C@H]5O4
4. CCOc1cc2ncc(C#N)c(Nc3ccc(OCc4ccccn4)c(Cl)c3)c2cc1NC(=O)/C=C/CN(C)C
5. CN(C)C(=O)C(CCN1CCC(O)(c2ccc(Cl)cc2)CC1)(c1ccccc1)c1ccccc1.Cl [LOPERAMIDE HYDROCHLORIDE]
6. O=C(Nc1ccc(Cl)cc1)Nc1cccc(-c2cccc(N3CCCC3)n2)c1

Response line:
1. 64%
2. 52%
3. 78%
4. 76%
5. 62%
6. 70%

Batch lookup, Population Healthy Nuclei (%) per entry.
1. CN1C2CCC1CC(OC(c1ccc(F)cc1)c1ccc(F)cc1)C2.Cl (centres undefined)
2. S=C(NCCCc1c[nH]cn1)NCCCN(Cc1ccc(Cl)c(Cl)c1)c1ccc(Br)cn1
3. O=C(Nc1ccc(-c2ccnc(Nc3ccc(N4CCOCC4)cc3)n2)cc1)[C@@H]1CCCN1
4. CCOC(=O)c1c(C)[nH]c2ccc3c(c12)CN1CCc2cc(OC)ccc2C1O3 (centres undefined)
5. Cc1cc(C)c(S(=O)(=O)N(Cc2ccc(-c3cccc(S(C)(=O)=O)c3)cc2)Cc2ccc(C(F)(F)F)o2)c(C)c1

Response line:
1: 64%; 2: 58%; 3: 76%; 4: 66%; 5: 79%

Provide the reported Population Healthy Nuclei (%) of each entry below, same order.
1. O=C1N/C(=N/c2ccccc2F)S/C1=C\c1ccc(C(=O)O)cc1
2. O=C1NC(=O)C(c2cnc3ccccn23)=C1c1cn2c3c(cc(F)cc13)CN(C(=O)N1CCCCC1)CC2
3. CNc1cc(Oc2cc(C(=O)Nc3cc(N4CCN(C)CC4)cc(C(F)(F)F)c3)ccc2C)ncn1
4. CCOc1cc(C(=O)N2CCC(N3CCN(C)CC3)CC2)ccc1Nc1ncc2c(n1)N(C1CCCC1)c1ccccc1C(=O)N2C

Response line:
71%
29%
52%
67%
